Target: AGO2 WT (phosphosite mutant background) (Homo sapiens, UniProt Q9UKV8 1-859, S387D;S824A;S828D;S831D;S834A)
Sequence (Q9UKV8 whole entry S387D/S824A/S828D/S831D/S834A): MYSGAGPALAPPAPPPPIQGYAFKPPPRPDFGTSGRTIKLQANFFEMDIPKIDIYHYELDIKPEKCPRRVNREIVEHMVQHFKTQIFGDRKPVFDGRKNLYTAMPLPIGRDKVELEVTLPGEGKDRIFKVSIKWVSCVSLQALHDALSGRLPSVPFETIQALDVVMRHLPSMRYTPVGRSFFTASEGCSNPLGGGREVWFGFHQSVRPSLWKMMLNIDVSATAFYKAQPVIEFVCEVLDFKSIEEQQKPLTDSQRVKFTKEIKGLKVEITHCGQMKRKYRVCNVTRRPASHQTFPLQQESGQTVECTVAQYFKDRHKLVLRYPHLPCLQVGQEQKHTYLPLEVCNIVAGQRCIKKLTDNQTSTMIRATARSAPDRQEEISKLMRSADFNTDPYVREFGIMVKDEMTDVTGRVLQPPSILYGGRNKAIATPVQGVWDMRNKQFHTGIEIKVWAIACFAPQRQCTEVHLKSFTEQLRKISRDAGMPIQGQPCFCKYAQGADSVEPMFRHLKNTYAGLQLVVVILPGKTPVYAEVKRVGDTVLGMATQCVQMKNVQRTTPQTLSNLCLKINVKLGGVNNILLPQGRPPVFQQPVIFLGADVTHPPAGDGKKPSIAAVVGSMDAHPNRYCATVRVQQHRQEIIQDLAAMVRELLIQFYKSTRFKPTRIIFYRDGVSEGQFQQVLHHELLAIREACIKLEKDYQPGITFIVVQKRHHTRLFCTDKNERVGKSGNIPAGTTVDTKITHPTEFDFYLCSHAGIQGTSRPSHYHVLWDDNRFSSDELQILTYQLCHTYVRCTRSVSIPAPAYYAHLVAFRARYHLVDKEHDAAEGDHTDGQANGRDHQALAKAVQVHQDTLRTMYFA
Assay: RNA Bind-n-Seq (nitrocellulose filter binding and sequencing); miR-122 guide loaded in AGO2; 60 min incubation; 30 mM Tris pH 8.0, 100 mM potassium acetate, 2 mM magnesium acetate, 0.5 mM TCEP, 0.005% NP-40, 0.01 mg/ml yeast tRNA; 3 nM AGO2-miR-122, 100 nM RNA library; 60; high values mean tight binding
Conditions: protein: recombinant; tags: His6 (N-terminal, pFastBac HTA)
Record form. Attribute: binding signal. Fill in for each entry.

For reference, reported binding signal for ATACTTCA (ssRNA, constant regions annealed to DNA blockers; guide miR-122 5' phosphate) RNA 1: GAGUUCUACAGUCCGACGAUCCCAACAUACUUCACACCUGGAAUUCUCGGGUGCCAA RNA 2: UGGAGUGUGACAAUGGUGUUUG DNA 1: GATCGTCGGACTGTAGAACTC DNA 2: TTGGCACCCGAGAATTCCA stands at 0.136 fold enrichment over input

For reference, reported binding signal for ATGTCTCA (ssRNA, constant regions annealed to DNA blockers; guide miR-122 5' phosphate) RNA 1: GAGUUCUACAGUCCGACGAUCCCAACAUGUCUCACACCUGGAAUUCUCGGGUGCCAA RNA 2: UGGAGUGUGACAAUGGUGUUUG DNA 1: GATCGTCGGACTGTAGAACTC DNA 2: TTGGCACCCGAGAATTCCA stands at 0.232 fold enrichment over input
